Record form. Attribute: melting point. Fill in for each entry.

Q: So what does the record say about melting point for O=C(Nc1ccc(Oc2ccnc(NCCN3CCCC3)n2)c2ccccc12)c1cc(F)cc(N2CCCCC2)c1 ?
Result: 92 to 94 °C

Q: So what does the record say about melting point for COc1cnc2c(-c3cccc(C(F)(F)F)c3)ccc(C)c2n1 ?
Result: 141 to 142 °C

Q: So what does the record say about melting point for CCCCCCCCCCOC(=O)CS(=O)(=O)Nc1c(C(C)C)cccc1C(C)C ?
Result: 65 to 67 °C

Q: So what does the record say about melting point for CNc1nc2ccncc2[nH]1 ?
Result: 256 °C

Q: So what does the record say about melting point for CC(C)Cc1ccc(C(C)C(=N)NO)cc1 (centres undefined) ?
Result: 75 to 78 °C

Q: So what does the record say about melting point for COC(=O)CCC(=O)c1ccc(C)cc1OCC(O)CNC(C)(C)C (centres undefined) ?
Result: 82 to 84.5 °C

Q: So what does the record say about melting point for CCOP(=O)(OCC)C(CCc1cc(C)nc2cc(-c3ccccc3)nn12)P(=O)(OCC)OCC ?
Result: 51 to 52 °C

Q: So what does the record say about melting point for COc1cc(O)cc(OC)c1/C=C/S(=O)(=O)CS(=O)(=O)/C=C/c1c(OC)cc(O)cc1OC ?
Result: 148 to 150 °C

Q: So what does the record say about melting point for COc1ccc2cccnc2c1N ?
Result: 114 to 115 °C

Q: So what does the record say about melting point for CC1(C)CC(C)(c2ccc(Oc3cccc([N+](=O)[O-])c3)cc2)c2cc(Oc3cccc([N+](=O)[O-])c3)ccc21 (centres undefined) ?
Result: 90 to 92 °C

Q: So what does the record say about melting point for CS(=O)(=O)c1ccc(-c2ncccc2C(=O)c2ccccn2)cc1 ?
Result: 143 to 147 °C

Q: So what does the record say about melting point for COc1cccc(-c2nc(C)nn2-c2ccc(S(N)(=O)=O)cc2)c1 ?
Result: 211 to 212 °C

Q: So what does the record say about melting point for CCCCCCOC(=O)C=Nc1cc(Cl)ccc1C(=O)O ?
Result: 99 °C

Q: So what does the record say about melting point for Cc1c(S(=O)(=O)c2ccc(Cl)cc2)cc(C(C)C)c(O)c1C(=O)O ?
Result: 165 to 166 °C

Q: So what does the record say about melting point for CCCCCS(=O)(=O)NC(=O)CCc1cc(OCCOC)nn1Cc1ccc(Cl)cc1Cl ?
Result: 108 to 112 °C

Q: So what does the record say about melting point for Cc1n[nH]c(C)c1CC1CC2c3cccc4[nH]cc(c34)CC2N(C)C1 (centres undefined) ?
Result: > 300 °C

Q: So what does the record say about melting point for Cc1c(-c2ccc(OS(=O)(=O)NN(C)C)cc2)[nH]c2nccnc12 ?
Result: 188 °C

Q: So what does the record say about melting point for CCOC(=O)c1ccc(OC)c(OCc2nc(C)c(C)nc2C)c1 ?
Result: 130 °C

Q: So what does the record say about melting point for CC(C)CNc1nc2cc(Cl)c(Cl)cc2n1[C@H]1O[C@@H](CO)[C@H](O)[C@@H]1O ?
Result: 136 °C

Q: So what does the record say about melting point for Cc1sc(C(=O)OCc2ccc3c(c2)OCO3)cc1NC(=O)NCc1ccccc1 ?
Result: 216 to 217 °C

Q: So what does the record say about melting point for O=C(O)CN1C(=O)C(=Cc2ccc(OCc3ccccc3)c(OCc3ccc(F)c(F)c3)c2)SC1=S ?
Result: 231 to 236 °C

Q: So what does the record say about melting point for CC(CCc1ccc(Cl)cc1)(Cn1ccnc1)Sc1cc(Cl)ccc1Cl (centres undefined) ?
Result: 150 °C

Q: So what does the record say about melting point for CNC(=N[N+](=O)[O-])SC ?
Result: 150 to 152 °C

Q: So what does the record say about melting point for CCOC(=O)c1nn(-c2ccc(Br)cc2)c(=O)c(C#N)c1C ?
Result: 174 to 176 °C

Q: So what does the record say about melting point for Nc1ccc(SCCOC2OC(CO)C(OC3OC(CO)C(O)C(O)C3O)C(O)C2O)cc1 (centres undefined) ?
Result: 104 to 106 °C

Q: So what does the record say about melting point for CN(c1cccc2cc(C3=NCCS3)[nH]c12)S(=O)(=O)c1cccs1 ?
Result: 192 to 193 °C

Q: So what does the record say about melting point for CNC1([C@@H]2CCN(c3ccc4c(=O)c(C(=O)O)cn([C@@H]5C[C@@H]5F)c4c3OC)C2)CC1 ?
Result: 213 to 215 °C

Q: So what does the record say about melting point for CN1CCCNC1=Nc1ccccc1N1CCOCC1 ?
Result: 138 to 139 °C

Q: So what does the record say about melting point for COc1cc(Cc2cnc(NCCCCc3ncc(Br)cc3C)[nH]c2=O)ccn1 ?
Result: 120 to 121 °C

Q: So what does the record say about melting point for N=C(N)c1ccc(N2CC(CN3CCN(CCC(=O)O)CC3)OC2=O)cc1 (centres undefined) ?
Result: 269 °C

Q: So what does the record say about melting point for Cc1nc(-c2ccc(OCCCCCOc3ccc(C(=N)NO)cc3)cc2)c(C(C)C)s1 ?
Result: 97 °C

Q: So what does the record say about melting point for NC(=O)c1ccc(-c2ccc(N)cc2)cc1 ?
Result: 281 to 284 °C

Q: So what does the record say about melting point for C=CCCCCCCCCNC(=O)NOCc1ccccc1 ?
Result: 53 to 55 °C

Q: So what does the record say about melting point for Nc1c(C(=O)c2cccc(Cl)c2)[nH]c2cc(Cl)ccc12 ?
Result: 99 to 102 °C

Q: So what does the record say about melting point for CCCCCCCCOc1cc2cc(CO)c(CO)c(-c3ccnc(Cl)c3)c2cc1OC ?
Result: 98 to 102 °C

Q: So what does the record say about melting point for COC(=O)C12CCc3cc(Cl)ccc3C1=NN(C(=O)Nc1ccc(C(F)(F)F)cc1)C2 (centres undefined) ?
Result: 234 to 236 °C

Q: So what does the record say about melting point for CCCCS(=O)(=O)NC(CNS(=O)(=O)c1cccc(C(=O)C2CCC3(CCNCC3)CC2)c1)C(=O)O (centres undefined) ?
Result: 225 to 235 °C

Q: So what does the record say about melting point for N#Cc1c(N2CCc3ccccc3CC2)nc(CCOC2CCCCO2)[nH]c1=O (centres undefined) ?
Result: 185 to 187 °C

Q: So what does the record say about melting point for COc1cc(O)cc(CN2C(=O)N(c3cnn(Cc4c(C)noc4C)c3)C(=O)C2(C)C)c1 ?
Result: 72 to 74 °C
